- Test system: P388 leukemia ip, CD2F1 mice, survival T/C
- assay_text: NCI In Vivo Anticancer Drug Screen. Data for tumor model P388 Leukemia (intraperitoneal) in CD2F1 (CDF1) mice
- run_conditions: endpoint: median survival time; dose: 6.25 mg/kg/injection; schedule: Q01DX009 (ip); vehicle: Klucel (hydroxypropylcellulose) (HPC); higher = longer survival
- Method: The antitumor activity of compounds was measured in mice bearing transplantable tumors. Survival or tumor size were measured and the results are expressed as the measurement made in the treated group (T) divided by the measurement made in the vehicle treated control group (C). The tumor model used in this assay is P388 Leukemia (intraperitoneal) in CD2F1 (CDF1) mice
Toxic doses and inconclusive results are not listed.
endpoint_name: T/C

>  <structure_smiles>
N#CCc1nn(-c2ccccc2)c2ncnc(N)c12

>  <observed_measurement>
103 % of control

$$$$
>  <structure_smiles>
C=C(C)C(=O)O[C@H]1C[C@@]2(C)OC(=CC2=O)/C(CO)=C\[C@H]2OC(=O)C(=C)[C@H]12

>  <observed_measurement>
117 % of control

$$$$
>  <structure_smiles>
C=CCNSc1cccc([N+](=O)[O-])c1

>  <observed_measurement>
121 % of control

$$$$

Q: Specify reported T/C for the molecule shown: Cl/C(=N\Nc1ccccc1)c1ccccc1
Ans: 106 % of control

Q: Specify reported T/C for the molecule shown: C/C(=N\N=P(c1ccccc1)(c1ccccc1)c1ccccc1)C(C)(C)C
Ans: 100 % of control

Q: Specify reported T/C for the molecule shown: C1=C[N]2c3c4c(ccc3=C1)=CC=C[N]4[Ga]2[c]1ccccc1
Ans: 103 % of control
